test system: OVCAR-3 ovarian cancer; experiment: Cytotoxicity, OVCAR-3; conditions: read-out: cytotoxicity GI50, OVCAR-3, 50% growth inhibition, average of two determinations, 8640 min, Hydrochloride
Structures can show the parent of a compound that is named as a salt.

compound	GI50 / nM
CCOc1ccc(NCc2cc(OC)c(OC)c(OC)c2)cc1 [110d, Hydrochloride]	464
CCc1ccc(NCc2cc(OC)c(OC)c(OC)c2)cc1 [110b, Hydrochloride]	405
COc1cc(CNc2ccc(C)cc2)cc(OC)c1OC.Cl [110a, Hydrochloride]	214
COc1cc(CNc2ccc(SC)cc2)cc(OC)c1OC [110e, Hydrochloride]	4850
COc1ccc(NCc2cc(OC)c(OC)c(OC)c2)cc1 [110c, Hydrochloride]	1960

---

tested on: five cancer cell cultures; assay: MTT cytotoxicity assay, five cancer cell cultures taken together; settings: five cancer cell lines
quantity: cytotoxicity (in words)

molecule	assay value
COc1cc(CCc2ccc(OCCN(C)C)cc2)cc(OC)c1OC [17f]	decreased cytotoxicity
CCCOc1ccc(CCc2cc(OC)c(OC)c(OC)c2)cc1 [17b]	decreased cytotoxicity

---

tested on: SKMEL-5 melanoma; experiment: MTT cytotoxicity assay, SKMEL-5; conditions: Homo sapiens, SK-MEL-5, […], read-out: Cytotoxicity ED50, SKMEL-5

compound	test system	measurement units	comparator	IC50
COc1ccc(NC(=O)c2cc(OC)cc(OC)c2)cc1 [11d]	SKMEL-5 melanoma	µM	=	11.9
COc1ccc(C(=O)c2nccc3c(OC)c(OC)c(OC)cc23)cc1	SKMEL-5 melanoma	µM	>	25
COc1ccc(C(C#N)Cc2cc(OC)c(OC)c(OC)c2)cc1 (stereo not drawn) [compound 17i]	SKMEL-5 melanoma	µM	=	6.4

---

system: tubulin; assay: Inhibition of tubulin polymerization (turbidimetry); format: biochemical, bovine; details: second series (Tables V-VII, IX); read-out: Inhibition of Tubulin Polymerization IC50 (±S.D.)

molecule	test system	IC50
COc1ccc2c(ccc3cc(OC)c(OC)c(OC)c32)c1 [32c, 2,3,4,7-Tetramethoxyphenanthrene]	tubulin	> 40 µM
COc1ccc(C2Cc3cc(OC)c(OC)c(OC)c3C2=O)cc1 (stereo not shown)	tubulin	> 40 µM
COc1ccc(C(=O)c2cc(OC)c(OC)c(OC)c2)cc1	tubulin	7.4 µM
COc1cc(CCc2ccc(C)cc2)cc(OC)c1OC [17d]	tubulin	21 µM
COc1ccc(/C=C\c2cc(OC)c(O[Si](C)(C)C(C)(C)C)c(OC)c2)cc1 [15k]	tubulin	> 40 µM
CCOc1ccc(/C=C\c2cc(OC)c(OC)c(OC)c2)cc1 [compound 15a]	tubulin	2.7 µM
CCCOc1ccc(/C=C\c2cc(OC)c(OC)c(OC)c2)cc1 [compound 15b]	tubulin	6 µM
CCc1ccc(CCc2cc(OC)c(OC)c(OC)c2)cc1 [17e]	tubulin	18 µM
COC(=O)/C(=C/c1ccc(OC)cc1)c1cc(OC)c(OC)c(OC)c1 [compound 24a]	tubulin	> 40 µM
COc1ccc(C(Cc2cc(OC)c(OC)c(OC)c2)C(=O)O)cc1 (stereo not shown)	tubulin	> 40 µM
COc1ccc(/C=C\c2cc(OC)cc(OC)c2)cc1 [15i]	tubulin	3.8 µM
COc1ccc(C(O)c2cc(OC)c(OC)c(OC)c2)cc1 (stereo not shown)	tubulin	> 40 µM
COc1ccc(/C=C\c2cc(OC)c(OC)c(OC)c2)cc1	tubulin	2.5 µM
COc1ccc(C(C#N)Cc2cc(OC)c(OC)c(OC)c2)cc1 (stereo not shown) [compound 17i]	tubulin	> 40 µM
COc1ccc(CC(C#N)c2cc(OC)c(OC)c(OC)c2)cc1 (stereo not shown) [compound 17h]	tubulin	11 µM
CCNC(=O)/C(=C/c1ccc(OC)cc1)c1cc(OC)c(OC)c(OC)c1 [compound 24d]	tubulin	> 40 µM
COc1ccc2ccc3cc(OC)c(OC)c(OC)c3c2c1 [32b, 2,3,4,6-Tetramethoxyphenanthrene]	tubulin	> 40 µM
COc1ccc(/C=C(/C(=O)O)c2cc(OC)c(OC)c(OC)c2)cc1 [compound 23a]	tubulin	> 40 µM
COc1ccc(/C=C\c2cc(OC)c(OCc3ccccc3)c(OC)c2)cc1 [15j]	tubulin	> 40 µM

---

test system: M14 melanoma; experiment: Cytotoxicity, M14; settings: read-out: cytotoxicity GI50, M14, 50% growth inhibition, average of two determinations, 8640 min
quantity: GI50 (nM)

compound	test system	measurement units	assay value
CCc1ccc(NCc2cc(OC)c(OC)c(OC)c2)cc1 [109b]	M14 melanoma	nM	315
COc1cc(CNc2ccc(SC)cc2)cc(OC)c1OC [109e]	M14 melanoma	nM	5260
COc1cc(CNc2ccc(C)cc2)cc(OC)c1OC [109a]	M14 melanoma	nM	150
CCOc1ccc(NCc2cc(OC)c(OC)c(OC)c2)cc1 [109d]	M14 melanoma	nM	403

---

tested on: SKMEL-5 melanoma; assay: MTT cytotoxicity assay, SKMEL-5; conditions: Homo sapiens, SK-MEL-5, […], read-out: Cytotoxicity ED50, SKMEL-5
// reported IC50 for each item listed
quantity: IC50 (nM)

compound	test system	comparator	assay value
COc1ccc(CC2NCCc3c2cc(OC)c(OC)c3OC)cc1 (stereo not shown)	SKMEL-5 melanoma	>	25000
COc1cc(/C=C/c2ccc(SC)cc2)cc(OC)c1OC [16c]	SKMEL-5 melanoma	=	280
COc1cc(/C=C\c2ccc(C(C)(C)C)cc2)cc(OC)c1OC [compound 15g]	SKMEL-5 melanoma	=	210
COc1ccc(CNc2cc(OC)cc(OC)c2)cc1 [12e]	SKMEL-5 melanoma	>	25000
COc1cc(/C=C/c2cccnc2)cc(OC)c1OC	SKMEL-5 melanoma	>	25000
COc1ccc(CC(C#N)c2cc(OC)c(OC)c(OC)c2)cc1 (stereo not shown) [compound 17h]	SKMEL-5 melanoma	=	4.1
COc1cc2ccc3c(OC)cccc3c2c(OC)c1OC [32d, 2,3,4,8-Tetramethoxyphenanthrene]	SKMEL-5 melanoma	=	12000
CNC(=O)/C(=C/c1ccc(OC)cc1)c1cc(OC)c(OC)c(OC)c1 [compound 24c]	SKMEL-5 melanoma	=	24
COc1cc(/C=C/c2ccc(N(C)C)cc2)cc(OC)c1OC	SKMEL-5 melanoma	=	4.6
COc1cc(CCc2ccc(SC)cc2)cc(OC)c1OC [17c]	SKMEL-5 melanoma	=	240

---

// reported GI50 for each item listed
test system: M14 melanoma; assay: Cytotoxicity, M14; details: read-out: cytotoxicity GI50, M14; 50% growth inhibition; average of two determinations; 8640 min
Counter-ions that a name gives are not always drawn.

compound	GI50
CCCc1ccc(N=Cc2cc(OC)c(OC)c(OC)c2)cc1 [108g]	> 100 µM
CCOc1ccc(N=Cc2cc(OC)c(OC)c(OC)c2)cc1 [108d]	> 100 µM
CCc1ccc(N=Cc2cc(OC)c(OC)c(OC)c2)cc1 [108b]	> 100 µM
COc1ccc(NCc2cc(OC)c(OC)c(OC)c2)cc1 [110c, Hydrochloride]	2.38 µM
COc1cc(C=Nc2ccc(C(C)C)cc2)cc(OC)c1OC [108f]	> 100 µM

---

system: five cancer cell cultures; assay: MTT cytotoxicity assay, five cancer cell cultures taken together; settings: […], read-out: cytotoxicity ED50, five cancer cell lines
pIC50: −log10 of the molar value.
// reported pIC50 for each item listed
quantity: pIC50

molecule	quantity	assay value
COc1cc(/C=C\c2ccccn2)cc(OC)c1OC [5k]	pIC50	< 5.00
COc1ccc(/C=C\c2ccc(OC)c(OC)c2)cc1 [15h]	pIC50	< 4.60
COc1cc(/C=C\c2ccncc2)cc(OC)c1OC [5i]	pIC50	< 5.00
COc1cc(/C=C\c2cccnc2)cc(OC)c1OC [5j]	pIC50	< 5.00
COc1cc(/C=C\c2ccc(N(C)C)cc2)cc(OC)c1OC [compound 5n]	pIC50	> 7.00
COc1ccc(CCc2cc(OC)c(OC)c(OC)c2)cc1 [compound 8a]	pIC50	~9.70
COc1ccc(NCc2cc(OC)c(OC)c(OC)c2)cc1 [compound 12a]	pIC50	~9.00
COC(=O)C(Cc1cc(OC)c(OC)c(OC)c1)c1ccc(OC)cc1 (centres unmarked) [compound 17j]	pIC50	< 4.60

---

tested on: A-549 lung carcinoma; test: MTT cytotoxicity assay, A-549; settings: Homo sapiens, A549, […], read-out: Cytotoxicity ED50, A-549, A-549; MTT, six days
pIC50: −log10 of the molar value.
quantity: pIC50

compound	comparator	assay value
COc1ccc(/C=C/c2cc(OC)c(OC)c(OC)c2)c(Cl)c1 [6e]	<	4.60
COc1ccc(/C=C\c2cc(OC)c(OC)c(OC)c2)c(Cl)c1 [compound 5e]	=	7.29
COc1cccc(/C=C\c2cc(OC)c(OC)c(OC)c2)c1 [compound 5b]	=	6.89
COc1cccc(/C=C/c2cc(OC)c(OC)c(OC)c2)c1 [6b]	=	5.01
COc1ccc(/C=C/c2cc(OC)c(OC)c(OC)c2)cc1 [compound 6a]	=	5.93
